biological target: staphylococcal enterotoxin B (Staphylococcus aureus (strain not …, UniProt P01552)); test: SPR; conditions: both partners purified
Sequence (P01552 28-266): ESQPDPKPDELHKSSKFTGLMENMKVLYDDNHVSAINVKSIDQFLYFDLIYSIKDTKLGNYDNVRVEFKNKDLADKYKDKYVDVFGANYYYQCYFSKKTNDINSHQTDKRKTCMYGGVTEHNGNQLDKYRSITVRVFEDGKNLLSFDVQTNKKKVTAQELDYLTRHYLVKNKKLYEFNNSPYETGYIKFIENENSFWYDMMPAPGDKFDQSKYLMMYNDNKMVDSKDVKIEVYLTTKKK
binders and their reported pKd
# log scale: pKd equals minus log10 of the concentration in mol/L

sdAb H9-B11 (VHH, source: E. coli, periplasm, purified (IMAC, size exclusion chromatography)) VHH: DVQLQASGGGLVQVGGSLRLSCAASGSTFRIGYMGWYRQAPGKPRELVARISSGGTTDYLDFVKDRFTISRDNAKNTVYLQMSSLKPEDTAVYYCNVVNYRANEYWGQGTQVTVSS    8.48

Below: the item to evaluate.
# get_value(readout='pKd', item= sdAb A10 (VHH, source: E. coli Rosetta (DE3), periplasm, purified (IMAC, size exclusion chromatography)) VHH: EVQLQASGGGLVRAGGTLRLTCDATTPTFGSYAMGWFRQAPGKEREFVSAISWSGGDTYADSVKGRFTISRDNTRNRVYLQMNDLEPDDTAIYTCARTTARYYISKDAKDYDYWGQGTQVTVSS ) 9.80
